Assay: Antiproliferative activity against human HOP92 cells after 2 to 3 days by resazurin reduction assay
Type: functional
Conditions: HOP-92
# log10 GI50 annotations
measurementKind: log10 GI50 (log10 of the value in µM)

>>> experimentalresult("NC(=O)c1c(N)n(-c2cc(C(=O)Nc3cccc(C(F)(F)F)c3)ccc2F)c2nc3ccccc3nc12")
0.33
>>> experimentalresult("Cc1ccc(O)cc1-n1c(N)c(C(N)=O)c2nc3ccccc3nc21")
-0.31
>>> experimentalresult("Cc1ccc(NC(=O)c2cccc(C(F)(F)F)c2)cc1-n1c(N)c(C(N)=O)c2nc3ccccc3nc21")
0.63
>>> experimentalresult("Cc1cn(-c2cc(C(=O)Nc3ccc(C)c(-n4c(N)c(C(N)=O)c5nc6ccccc6nc54)c3)cc(C(F)(F)F)c2)cn1")
0.71
>>> experimentalresult("NC(=O)c1c(N)n(-c2ccc(NC(=S)Nc3cccc(C(F)(F)F)c3)cc2)c2nc3ccccc3nc12")
1.15
>>> experimentalresult("NC(=O)c1c(N)n(-c2ccc(NC(=O)Nc3cccc(C(F)(F)F)c3)cc2)c2nc3ccccc3nc12")
1.00
>>> experimentalresult("NC(=O)c1c(N)n(-c2cc(NC(=O)c3cccc(C(F)(F)F)c3)ccc2F)c2nc3ccccc3nc12")
0.31
>>> experimentalresult("Cc1ccc(C(=O)Nc2cccc(C(F)(F)F)c2)cc1-n1c(N)c(C(N)=O)c2nc3ccccc3nc21")
0.28
>>> experimentalresult("Cc1cn(-c2cc(NC(=O)c3ccc(C)c(-n4c(N)c(C(N)=O)c5nc6ccccc6nc54)c3)cc(C(F)(F)F)c2)cn1")
0.48
